experiment: chemical genetic growth profiling, strain panel (AID 1159580);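 note: tested at 20 µM; growth read once vehicle control cultures reached saturation at 30 °C; lower values mean less growth of the strain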; settings: S. cerevisiae deletion strains, growth OD, locus YDL185W, strain tfp1
Among all 5,500 compounds or so, about 2,000 (36%) were called active. Another 18% or so got no clear call; they are omitted. Cut-off read from the data, not from the text of the source: active = normalized growth mostly below about 0.91 (no sharp cut-off); inconclusive = no clear call, values can overlap the other calls; inactive = mostly above about 0.92. Some of the results follow.
Your response should consist of one outcome taken from active, inactive

>  <molecule>
Cc1cc(=O)oc2cc(O)c(O)cc12

>  <class>
inactive

$$$$
>  <molecule>
CC(C)CCCC(C)C1CCC2C3CC(=O)[C@H]4C[C@@H](O)CC[C@]4(C)C3CC[C@]12C (some centres not stated)

>  <class>
inactive

$$$$
>  <molecule>
O=C1NC(O)=NC1(c1ccccc1)c1ccccc1

>  <class>
inactive

$$$$
>  <molecule>
Cc1cc(=O)[nH]c(=S)[nH]1

>  <class>
inactive

$$$$
>  <molecule>
CC12CCC(O)CC1CCC1C2[C@H](O)CC2(C)C(C3=CC(=O)OC3)CCC12O (some centres not stated)

>  <class>
inactive

$$$$

Exercise: Which outcome was assigned to CCN1CCN(C(=O)NC(C(=O)N[C@@H]2C(=O)N3[C@@H]2SC(C)(C)[C@@H]3C(=O)O)c2ccccc2)C(=O)C1=O (some centres not stated) in this test?
Solution: inactive

Exercise: Now try "CC1=CC(=O)c2ccccc2C1=O" .
Solution: active

Exercise: Now try CC(C)CCCC(C)[C@H]1CCC2C3CC=C4CC(=O)CC[C@]4(C)C3CC[C@@]21C (some centres not stated) .
Solution: inactive

Exercise: Now try CC(C)CCCC(C)C1CCC2C3=CC[C@H]4C[C@@H](O)CC[C@]4(C)C3CC[C@@]21C (some centres not stated) .
Solution: inactive

Exercise: Now try "Oc1c(Cl)cc(Cl)cc1Sc1cc(Cl)cc(Cl)c1O" .
Solution: inactive

Exercise: Now try "CCCOc1ccc2nc(NC(=O)OC)[nH]c2c1" .
Solution: inactive
